- Tested on: MCF7
- testDetails: Cytotoxicity against Homo sapiens (human) MCF7 cells assessed as cell viability at 3.125 ug/ml after 48 hr by MTT assay relative to control
- Format: functional
- recordedConditions: MCF7, 48 h, read-out: Activity
The threshold is 80%. Values of viability at 3.125 µg/mL beneath it are tagged met; values meeting or exceeding it are tagged not met.

Example entries begin here.
[[record]]
compound = "CN/C=N/C1=C(C#N)C(c2ccc(Cl)cc2)c2ccc3cccnc3c2O1 (stereo not given)"
answerlabel = "met"

[[record]]
compound = "N#CC1=C(/N=C/NN)Oc2c(ccc3cccnc23)C1c1ccc(Cl)cc1 (stereo not given)"
answerlabel = "met"

[[record]]
compound = "Nc1ncnc2c1C(c1ccc(Cl)cc1)c1ccc3cccnc3c1O2 (stereo not given)"
answerlabel = "not met"

[[record]]
compound = "CC[C@]1(O)C[C@@H]2CN(CCc3c([nH]c4ccccc34)[C@@](C(=O)OC)(c3cc4c(cc3OC)N(C)[C@H]3[C@@](O)(C(=O)OC)[C@H](OC(C)=O)[C@]5(CC)C=CCN6CC[C@]43[C@@H]65)C2)C1"
answerlabel = "met"

[[record]]
compound = "CCO/C=N/C1=C(C#N)C(c2ccc(Br)cc2)c2ccc3ccc(C)nc3c2O1 (stereo not given)"
answerlabel = "not met"


Q. I'd appreciate it if you could check whether N#CC1=C(/N=C/c2ccccc2)Oc2c(ccc3cccnc23)C1c1ccc(Cl)cc1 (stereo not given) has viability at 3.125 µg/mL smaller than 80%.
A. met

Q. I'd appreciate it if you could check whether Cc1ccc2ccc3c(c2n1)OC(N)=C(C#N)C3c1ccc(Cl)cc1 (stereo not given) has viability at 3.125 µg/mL smaller than 80%.
A. not met

Q. I'd appreciate it if you could check whether CCO/C=N/C1=C(C#N)C(c2ccc(Cl)cc2)c2ccc3ccc(C)nc3c2O1 (stereo not given) has viability at 3.125 µg/mL smaller than 80%.
A. not met

---

viability at 3.125 µg/mL values for the molecules below.
- testDetails: Cytotoxicity against Homo sapiens (human) HCT cells assessed as cell viability at 3.125 ug/ml after 48 hr by MTT assay relative to control
- Type: functional
- recordedConditions: read-out: Activity
Please report the result as a number followed by the unit.

Before answering, review these 5 worked examples.
[[record]]
molecule = "Cc1ccc2ccc3c(c2n1)OC(N)=C(C#N)C3c1ccc(Cl)cc1 (stereo not given)"
reportedmetric = "viability at 3.125 µg/mL"
testresult = "79%"

[[record]]
molecule = "Nc1ncnc2c1C(c1ccc(Cl)cc1)c1ccc3cccnc3c1O2 (stereo not given)"
reportedmetric = "viability at 3.125 µg/mL"
testresult = "78.6%"

[[record]]
molecule = "CN(C)/C=N/C1=C(C#N)C(c2ccc(Cl)cc2)c2ccc3cccnc3c2O1 (stereo not given)"
reportedmetric = "viability at 3.125 µg/mL"
testresult = "98.5%"

[[record]]
molecule = "Cc1ccc2ccc3c(c2n1)Oc1ncnc(N)c1C3c1ccc(Cl)cc1 (stereo not given)"
reportedmetric = "viability at 3.125 µg/mL"
testresult = "98.8%"

[[record]]
molecule = "Cc1ccc2ccc3c(c2n1)OC(/N=C/N)=C(C#N)C3c1ccc(Cl)cc1 (stereo not given)"
reportedmetric = "viability at 3.125 µg/mL"
testresult = "82.2%"


Q. What value of viability at 3.125 µg/mL has been reported for the following molecule? N#CC1=C(/N=C/c2ccccc2)Oc2c(ccc3cccnc23)C1c1ccc(Cl)cc1 (stereo not given)
A. 30.2%

Q. What value of viability at 3.125 µg/mL has been reported for the following molecule? CC[C@]1(O)C[C@@H]2CN(CCc3c([nH]c4ccccc34)[C@@](C(=O)OC)(c3cc4c(cc3OC)N(C)[C@H]3[C@@](O)(C(=O)OC)[C@H](OC(C)=O)[C@]5(CC)C=CCN6CC[C@]43[C@@H]65)C2)C1 [VINBLASTINE]
A. 47.5%

Q. What value of viability at 3.125 µg/mL has been reported for the following molecule? N#CC1=C(/N=C/NN)Oc2c(ccc3cccnc23)C1c1ccc(Cl)cc1 (stereo not given)
A. 65.2%

Q. What value of viability at 3.125 µg/mL has been reported for the following molecule? Cc1ccc2ccc3c(c2n1)OC(/N=C/N)=C(C#N)C3c1ccc(Br)cc1 (stereo not given)
A. 65%

Q. What value of viability at 3.125 µg/mL has been reported for the following molecule? CC(=O)NC1=C(C#N)C(c2ccc(Br)cc2)c2ccc3ccc(C)nc3c2O1 (stereo not given)
A. 95.1%

---

- System: HepG2
- testDetails: Cytotoxicity against Homo sapiens (human) HepG2 cells after 48 hr by MTT assay
- Assay type: functional, cell-based
- recordedConditions: Homo sapiens, HepG2, 48 h; read-out: IC50
The class of a record is decided solely by its measured IC50; consult class 1 (below 6 µg/mL), class 2 (6 µg/mL to below 30 µg/mL), class 3 (30 µg/mL or more)

[[record]]
compound = "CCO/C=N/C1=C(C#N)C(c2ccc(Cl)cc2)c2ccc3ccc(C)nc3c2O1 (stereo not drawn)"
answerlabel = "class 3"

[[record]]
compound = "Cc1ccc2ccc3c(c2n1)Oc1ncnc(N)c1C3c1ccc(Cl)cc1 (stereo not drawn)"
answerlabel = "class 2"

[[record]]
compound = "N#CC1=C(/N=C/NN)Oc2c(ccc3cccnc23)C1c1ccc(Cl)cc1 (stereo not drawn)"
answerlabel = "class 2"

[[record]]
compound = "N#CC1=C(N)Oc2c(ccc3cccnc23)C1c1ccc(Cl)cc1 (stereo not drawn)"
answerlabel = "class 3"


Q. GET /class?item= CC(=O)NC1=C(C#N)C(c2ccc(Cl)cc2)c2ccc3ccc(C)nc3c2O1 (stereo not drawn)
A. class 2

Q. GET /class?item= CN(C)/C=N/C1=C(C#N)C(c2ccc(Cl)cc2)c2ccc3cccnc3c2O1 (stereo not drawn)
A. class 3

Q. GET /class?item= Nc1ncnc2c1C(c1ccc(Cl)cc1)c1ccc3cccnc3c1O2 (stereo not drawn)
A. class 3

Q. GET /class?item= Cc1ccc2ccc3c(c2n1)OC(N)=C(C#N)C3c1ccc(Br)cc1 (stereo not drawn)
A. class 1

Q. GET /class?item= CC(=O)NC1=C(C#N)C(c2ccc(Br)cc2)c2ccc3ccc(C)nc3c2O1 (stereo not drawn)
A. class 2

Q. GET /class?item= N#CC1=C(/N=C/N)Oc2c(ccc3cccnc23)C1c1ccc(Cl)cc1 (stereo not drawn)
A. class 2

Q. GET /class?item= CN/C=N/C1=C(C#N)C(c2ccc(Cl)cc2)c2ccc3cccnc3c2O1 (stereo not drawn)
A. class 1

Q. GET /class?item= Cc1ccc2ccc3c(c2n1)OC(/N=C/N)=C(C#N)C3c1ccc(Br)cc1 (stereo not drawn)
A. class 3

Q. GET /class?item= Cc1ccc2ccc3c(c2n1)OC(N)=C(C#N)C3c1ccc(Cl)cc1 (stereo not drawn)
A. class 1

---

viability at 3.125 µg/mL values for the compounds below.
- System: MCF7
- testDetails: Cytotoxicity against Homo sapiens (human) MCF7 cells assessed as cell viability at 3.125 ug/ml after 48 hr by MTT assay relative to control
- Format: functional
- recordedConditions: MCF7, 48 h, read-out: Activity
Form entry: value (%) — number only.

[[record]]
compound = "Cc1ccc2ccc3c(c2n1)OC(/N=C/N(C)C)=C(C#N)C3c1ccc(Cl)cc1 (stereo not given)"
testresult = 87.2


Next:
Q. What value of viability at 3.125 µg/mL has been reported for the following compound? CN(C)/C=N/C1=C(C#N)C(c2ccc(Cl)cc2)c2ccc3cccnc3c2O1 (stereo not given)
A. 92

---

- Tested on: HepG2
- testDetails: Cytotoxicity against Homo sapiens (human) HepG2 cells assessed as cell viability at 50 ug/ml after 48 hr by MTT assay relative to control
- Type: functional
- recordedConditions: HepG2, 48 h, read-out: Activity
reportedMetric: viability at 50 µg/mL (%)
Form entry: value (%) — number only.

Before answering, review these 8 worked examples.
[[record]]
compound = "N#CC1=C(N)Oc2c(ccc3cccnc23)C1c1ccc(Cl)cc1 (stereo not given)"
testresult = 52.8

[[record]]
compound = "CN/C=N/C1=C(C#N)C(c2ccc(Cl)cc2)c2ccc3cccnc3c2O1 (stereo not given)"
testresult = 9.28

[[record]]
compound = "Cc1ccc2ccc3c(c2n1)OC(/N=C/N(C)C)=C(C#N)C3c1ccc(Cl)cc1 (stereo not given)"
testresult = 68.2

[[record]]
compound = "Cc1ccc2ccc3c(c2n1)Oc1ncnc(N)c1C3c1ccc(Cl)cc1 (stereo not given)"
testresult = 28.3

[[record]]
compound = "CC(=O)NC1=C(C#N)C(c2ccc(Br)cc2)c2ccc3ccc(C)nc3c2O1 (stereo not given)"
testresult = 32.6

[[record]]
compound = "Cc1ccc2ccc3c(c2n1)OC(/N=C/N)=C(C#N)C3c1ccc(Cl)cc1 (stereo not given)"
testresult = 41.2

[[record]]
compound = "N#CC1=C(/N=C/N)Oc2c(ccc3cccnc23)C1c1ccc(Cl)cc1 (stereo not given)"
testresult = 35.8

[[record]]
compound = "N#CC1=C(N)Oc2c(ccc3cccnc23)C1c1ccc(Br)cc1 (stereo not given)"
testresult = 91.8


Q. What value of viability at 50 µg/mL has been reported for the following compound? CC(=O)NC1=C(C#N)C(c2ccc(Cl)cc2)c2ccc3ccc(C)nc3c2O1 (stereo not given)
A. 23.8

Q. What value of viability at 50 µg/mL has been reported for the following compound? N#CC1=C(/N=C/c2ccccc2)Oc2c(ccc3cccnc23)C1c1ccc(Cl)cc1 (stereo not given)
A. 18.6

Q. What value of viability at 50 µg/mL has been reported for the following compound? N#CC1=C(/N=C/NN)Oc2c(ccc3cccnc23)C1c1ccc(Cl)cc1 (stereo not given)
A. 24.9

Q. What value of viability at 50 µg/mL has been reported for the following compound? CCO/C=N/C1=C(C#N)C(c2ccc(Cl)cc2)c2ccc3cccnc3c2O1 (stereo not given)
A. 39.4
